Origin of measurements: paper PMC11070930

- measuredTarget: PARP1 WT (UniProt P09874 1-1014)
- Sequence (P09874 whole entry): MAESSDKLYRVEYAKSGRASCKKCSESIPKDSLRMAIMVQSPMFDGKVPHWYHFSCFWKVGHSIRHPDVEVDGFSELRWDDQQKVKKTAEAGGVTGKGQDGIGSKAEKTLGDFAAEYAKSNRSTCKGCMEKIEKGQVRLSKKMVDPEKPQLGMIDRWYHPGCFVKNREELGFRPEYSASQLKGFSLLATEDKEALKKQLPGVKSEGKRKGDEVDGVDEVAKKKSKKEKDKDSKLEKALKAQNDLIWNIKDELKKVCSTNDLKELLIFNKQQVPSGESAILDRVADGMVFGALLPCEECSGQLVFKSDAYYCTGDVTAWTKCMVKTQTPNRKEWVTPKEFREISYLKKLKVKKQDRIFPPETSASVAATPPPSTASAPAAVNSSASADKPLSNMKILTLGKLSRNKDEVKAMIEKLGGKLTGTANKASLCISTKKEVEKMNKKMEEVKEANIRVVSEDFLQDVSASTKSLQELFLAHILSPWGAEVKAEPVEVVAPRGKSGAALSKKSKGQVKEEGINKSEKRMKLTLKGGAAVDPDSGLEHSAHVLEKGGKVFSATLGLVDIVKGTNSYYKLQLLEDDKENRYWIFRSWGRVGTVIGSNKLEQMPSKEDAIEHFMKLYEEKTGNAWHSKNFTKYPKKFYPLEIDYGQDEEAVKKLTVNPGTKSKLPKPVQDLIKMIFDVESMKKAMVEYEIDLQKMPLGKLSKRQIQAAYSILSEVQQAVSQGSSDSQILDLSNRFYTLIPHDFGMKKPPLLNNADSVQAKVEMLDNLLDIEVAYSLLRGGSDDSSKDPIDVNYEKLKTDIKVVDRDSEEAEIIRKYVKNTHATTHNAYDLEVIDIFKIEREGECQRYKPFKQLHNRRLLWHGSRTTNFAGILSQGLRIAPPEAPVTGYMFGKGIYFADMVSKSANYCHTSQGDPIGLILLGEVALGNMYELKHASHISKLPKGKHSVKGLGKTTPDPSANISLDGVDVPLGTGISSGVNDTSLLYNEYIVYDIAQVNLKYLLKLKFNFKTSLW
- assayRemarks: fluorescence polarization
measurementKind: Kd (nM)
Respond with the bare value in nM.

Task item: Which Kd value belongs to 18-bp DNA duplex (dsDNA) DNA 1: GGGTTGCGGCCGCTTGGG DNA 2: CCCAAGCGGCCGCAACCC ?
Reply: 47.7
